Task for the reader: assign each of the following sequences its reported apparent KD of MS2 coat protein.
# Test system: MS2 coat protein
# assayInfo: apparent KD of MS2 coat protein; designed switch direction (-1 OFF switch, 1 ON switch): -1; higher = weaker reporter binding
# experimentalSetup: input ligand: FMN 200 uM
One number for each entry, in nM.

Okay, here is my list. What is apparent KD of MS2 coat protein for each of these?
1. CUCCAUGCCCAGGCUUAGAACAUGAGGAUCACCCAUGUAGAUCCAGAAAAUUUGCUCGUCAGGCAAUUUAUAGAUUG [Eternabot (L1) Solution 9] (Eterna round: R97, puzzle: Sensor, turn-off variant 1)
2. AAGCAGCGAGGAUAUGCUUGAGCGUGUCCUAGUUGAAAUAAACUUGAGGAUCACCCAAGUAGAAGGCGCAGCCC [Rivezaed] (Eterna round: R97, puzzle: Exclusion 2)
3. AUUCCCACCCGAGGAUAUGCUUUAUUGCCGGGUGGUCAACAUGAGGAUCACCCAUGUAACUAAACGCAGAAGGCGGACAAUAAG [Ediner] (Eterna round: R96, puzzle: Exclusion NG 2)
4. CUAGCGAUUGUAGGAUAUCGGACUGUUUCAGUCUGAGAAGGACAUGAGGAUCACCCAUGUGAAGCUACGUGAGUAGCACGCUAG [JL ENG1 3.84] (Eterna round: R96, puzzle: Exclusion NG 1)
5. GCUUGUAGAGGAUAUACAAGGGCCCACGCGGCGAGAGCCGCACAUGAGGAUCACCCAUGUAGAAGGCUACUAUA [JL-ex2-4.23 ViennaUCT mod] (Eterna round: R97, puzzle: Exclusion 2)
6. GCCAGAGGAGGAUAUCUAAUAUAUCACAUGAGGAUCACCCAUGUCCAGCGAAAGCUGGAGGGAGAAGGCCUCUGGC [Fiskers Ex 5 - 23] (Eterna round: R96, puzzle: Exclusion 5)
7. CAAGAACAGGUCAGGAUAUGGCAAAUAAAUAACAACCAGAAGGGACUUGAGGAUCACCCAAGUUUAGAAGGGUA [Tebeorus] (Eterna round: R97, puzzle: Brourd's mod of Exclusion 4)
8. GAGCAGCGAGGAUAUACAGACGGGUCCAGUACGUGUCUUGGACUUGAGGAUCACCCAAGUAGAAGGCGCCACAG [salish99_ex2_r4_605] (Eterna round: R97, puzzle: Exclusion 2)

Outgoing:
[500, 135, 33.5, 46.1, 125, 74.8, 221, 42.6]

Give measured apparent KD of MS2 coat protein for every item shown.
1. GCUCGCGGGCAAGGAUAUCCUACGCUGUUCUGGUUCGUGUCUGUUACAUGAGGAUCACCCAUGUGGGAGAAGGUGCACCAGGGU [Design 49] (Eterna round: R96, puzzle: Exclusion NG 2)
2. CUGAACCCGGUAGGAUAUAUUGUGGGCAGGCGUGGAACGACAUGAGGAUCACCCAUGUAAUUGAGGUAGAAGGGCCGAGAGAUU [Excl-NG2-LRO14] (Eterna round: R96, puzzle: Exclusion NG 2)
3. ACAUGAGGAUCACCCAUGUAAACGUAAUGGCUCAUGUAGAGUCAGGAUAUGCGUGGCGAACUCGCGCAGAAGGGACAAGACUGG [Deportation 22 - Jieux - Exclusion NG 3] (Eterna round: R96, puzzle: Exclusion NG 3)
4. UUAAUUAGCUCGCUAGAUCCUCACAUGAGGAUCACCCAUGUGCAGGAUAUCAGCUCGUUUAGAGCUGAGAAGGGCACUGCGAGC [ExNG3/10-A2] (Eterna round: R96, puzzle: Exclusion NG 3)

Outgoing:
1: 17.5; 2: 32.8; 3: 30.4; 4: 147

Give me apparent KD of MS2 coat protein for each of these sequences, listed below.
1. AACAAGCUUUUAAGAUCCUACAUGAGGAUCACCCAUGUGCUCGUCUUGUAACGUACUGUGACGAAAGUCACGGUACG [JL TOV1 3.29] (Eterna round: R97, puzzle: Sensor, turn-off variant 1)
2. UGAGUGUUAGGAUAUCGCGGUUAGGCGAGUUGCUUAAUGAUCGAGAAGGGACAUGAGGAUCACCCAUGUGGGAC [Eternabot (L1) Solution 40] (Eterna round: R97, puzzle: Exclusion 4)

Outgoing:
1: 233; 2: 127

# map each sequence to its apparent KD of MS2 coat protein
1. UUUAAGGCUGAGGAUAUGUGGUCCGCCAAAGACAUAGAAGGUAGCACAUGAGGAUCACCCAUGUCACGAAAAGU [Eternabot (L1) Solution 81] (Eterna round: R97, puzzle: Exclusion 6)
2. CUGAGUUUAGGAUAUACAUGAGGAUCACCCAUGUAAAGUAGCUUGCGUACAGGCAGAUGUAGAAGGAAAUUCGG [Mod of JL 7 - Jieux - Exclusion 3] (Eterna round: R97, puzzle: Exclusion 3)
3. AUAAGUGAUAAGGAUAUCACUAGCUUCGGCUAGUGAGAAGGUAUCACAUGAGGAUCACCCAUGUGUUCCAAUAA [Ex6/7-A1] (Eterna round: R97, puzzle: Exclusion 6)
4. UUUUUACAUGAGGAUCACCCAUGUGAGGAUAUGGUUUCGCUGGCCGUAGCCAGUGGAACCAGAAGGCGCAUGAU [Mat - Exclusion 1 - JL Mod - D8] (Eterna round: R97, puzzle: Exclusion 1)

Outgoing:
1: 54.3; 2: 31.5; 3: 603; 4: 374
